Where these numbers come from: patent US9688764B2

# system_tested: mfPRLR.mmh (monomeric macaca fascicularis PRLR)
# Sequence (as listed by the source): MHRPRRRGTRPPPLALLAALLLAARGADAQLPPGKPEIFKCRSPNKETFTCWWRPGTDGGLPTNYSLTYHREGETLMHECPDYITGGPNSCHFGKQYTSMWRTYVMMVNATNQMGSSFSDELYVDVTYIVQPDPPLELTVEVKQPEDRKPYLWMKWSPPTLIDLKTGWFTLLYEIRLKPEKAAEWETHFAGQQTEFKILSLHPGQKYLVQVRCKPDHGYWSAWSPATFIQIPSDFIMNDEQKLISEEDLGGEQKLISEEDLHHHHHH
# measurement_notes: Surface plasmon resonance (Biacore T200), mAb-capture format
# Format: binding
# condition_notes: 37° C., antibody-capture format, analyte mfPRLR.mmh
# Description: Antibodies, expressed as human IgG1 Fc “[…]” designations), were captured onto an anti-human Fc sensor surface (mAb-capture format), and soluble monomeric (hPRLR.mmh; SEQ ID NO:401, or macaca fascicularis (mf) PRLR.mmh; SEQ ID NO:403) or dimeric (hPRLR.mFc; SEQ ID NO:402) PRLR protein was injected over the sensor surface. Measurements were conducted on a T200 Biacore instrument. […]
readout: Kd (nM)
Hi! Could you send only the number? It should be in nM, unit omitted.

molecule="H1H6792P: anti-PRLR antibody, human IgG1 Fc; HCVR/LCVR SEQ ID NOs 130/138 (antibody, V domains shown, human IgG1 Fc) VH: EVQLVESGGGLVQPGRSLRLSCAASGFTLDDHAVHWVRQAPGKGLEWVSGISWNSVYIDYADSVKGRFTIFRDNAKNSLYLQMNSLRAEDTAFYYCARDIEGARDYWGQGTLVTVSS VL: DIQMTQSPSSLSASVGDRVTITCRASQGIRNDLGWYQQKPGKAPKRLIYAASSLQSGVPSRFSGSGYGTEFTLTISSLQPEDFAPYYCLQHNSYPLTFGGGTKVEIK" readout=Kd measured_result=9.37

Now take the following molecule into account.
Ask: Let me know recorded Kd for H1H6765P: anti-PRLR antibody, human IgG1 Fc; HCVR/LCVR SEQ ID NOs 18/26 (antibody, V domains shown, human IgG1 Fc) VH: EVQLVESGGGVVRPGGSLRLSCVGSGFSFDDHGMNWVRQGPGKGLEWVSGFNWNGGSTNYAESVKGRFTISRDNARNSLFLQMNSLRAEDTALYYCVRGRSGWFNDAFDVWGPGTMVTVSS VL: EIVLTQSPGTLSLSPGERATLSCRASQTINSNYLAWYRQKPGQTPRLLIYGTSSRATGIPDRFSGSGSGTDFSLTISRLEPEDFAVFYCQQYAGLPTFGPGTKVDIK , thanks.
Reply: 0.0504
